Entry source: patent US20230117470A1

# target.desc: human TLR8 (Homo sapiens)
# Construct: host or cells: HEK-Blue cells
# Sequence (Q9NR97 27-1041): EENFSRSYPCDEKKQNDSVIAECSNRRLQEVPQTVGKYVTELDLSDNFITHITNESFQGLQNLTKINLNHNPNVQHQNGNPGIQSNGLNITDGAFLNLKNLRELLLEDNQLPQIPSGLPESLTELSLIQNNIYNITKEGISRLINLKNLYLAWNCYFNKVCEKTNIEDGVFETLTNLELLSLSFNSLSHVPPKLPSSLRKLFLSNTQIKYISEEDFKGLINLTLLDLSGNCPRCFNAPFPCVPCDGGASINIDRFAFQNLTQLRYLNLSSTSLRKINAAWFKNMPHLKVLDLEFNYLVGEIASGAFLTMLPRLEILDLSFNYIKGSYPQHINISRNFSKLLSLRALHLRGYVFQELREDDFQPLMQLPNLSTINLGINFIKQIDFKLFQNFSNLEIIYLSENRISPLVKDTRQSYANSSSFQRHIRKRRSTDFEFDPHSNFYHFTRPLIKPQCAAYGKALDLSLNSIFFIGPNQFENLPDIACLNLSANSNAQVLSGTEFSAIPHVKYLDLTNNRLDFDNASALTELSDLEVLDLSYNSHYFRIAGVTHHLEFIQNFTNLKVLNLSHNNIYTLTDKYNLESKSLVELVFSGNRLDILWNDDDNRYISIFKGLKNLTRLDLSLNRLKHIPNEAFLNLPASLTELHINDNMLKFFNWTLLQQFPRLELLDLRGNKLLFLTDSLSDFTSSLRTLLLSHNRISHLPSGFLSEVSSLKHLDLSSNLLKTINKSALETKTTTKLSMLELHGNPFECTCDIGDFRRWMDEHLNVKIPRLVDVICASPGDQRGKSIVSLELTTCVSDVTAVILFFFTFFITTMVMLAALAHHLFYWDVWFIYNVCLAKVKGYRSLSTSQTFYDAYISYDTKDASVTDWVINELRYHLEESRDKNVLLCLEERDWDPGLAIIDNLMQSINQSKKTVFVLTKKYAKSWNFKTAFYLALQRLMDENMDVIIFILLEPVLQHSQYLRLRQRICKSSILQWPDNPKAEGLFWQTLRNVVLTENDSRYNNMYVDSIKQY
# measurement.notes: TLR8 inhibition reporter assay (HEK-Blue cells, SEAP reporter, R848 stimulation)
# Format: cell-based
# particulars: HEK-Blue cells overexpressing human TLR8, SEAP reporter, R848 15.9 μM
# From the text: TLR7/8/9 Inhibition Reporter Assays HEK-Blue™-cells (Invivogen) overexpressing human TLR7, TLR8 or TLR9 receptors were used for screening inhibitors of these receptors using an inducible SEAP (secreted embryonic alkaline phosphatase) reporter gene under the control of the IFN-β minimal promoter fused to five NF-κB and AP-1-binding sites. […]
reported.metric: log10(IC50) (log10 of the value in nM)

compound	target.desc	log10(IC50)
Cc1cc(-c2[nH]nc(C(=O)N[C@H]3CC[C@@H](NC4CCOCC4)CC3)c2C(C)C)cn2ncnc12 [Example 98]	human TLR8 (Homo sapiens)	0.14
Cc1cc(-c2[nH]nc(C(=O)NC3CCN(CC4CCOCC4)CC3)c2CC(F)(F)F)cn2ncnc12 [Example 204]	human TLR8 (Homo sapiens)	-0.20
Cc1cc(-c2[nH]nc(-c3ncc(C4CCN(CC(C)(C)O)CC4)cn3)c2C(C)C)cn2ncnc12 [Example 390]	human TLR8 (Homo sapiens)	2.68
Cc1cc(-c2[nH]nc(C(=O)NCC3CCCCN3)c2C(C)C)cn2ncnc12 (stereo not shown) [Example 56]	human TLR8 (Homo sapiens)	0.54
CCN1CCC[C@H](NC(=O)c2n[nH]c(-c3cc(C)c4ncnn4c3)c2C(C)C)C1 [Example 164]	human TLR8 (Homo sapiens)	0.65
Cc1cc(-c2[nH]nc(C(=O)NCC3CN(C(C)C)CCO3)c2C(C)C)cn2ncnc12 (stereo not shown) [Example 141]	human TLR8 (Homo sapiens)	1.13
COc1cc(-c2[nH]nc(C(=O)NC3CCNCC3)c2C(C)C)cn2ncnc12 [Example 60]	human TLR8 (Homo sapiens)	1.45
Cc1cc(-c2[nH]nc(-c3ccc(C4CCN(C(=O)CN(C)C)CC4)cc3)c2C(C)C)cn2ncnc12 [Example 323]	human TLR8 (Homo sapiens)	0.59
Cc1noc(C)c1CN1CCC(NC(=O)c2n[nH]c(-c3cc(C)c4ncnn4c3)c2C(C)C)CC1 [Example 78]	human TLR8 (Homo sapiens)	0.21
COc1cc(-c2[nH]nc(-c3ccc(C4CN(C5COC5)C4)cc3)c2C(C)C)cn2ncnc12 [Example 332]	human TLR8 (Homo sapiens)	0.28
Cc1cc(-c2[nH]nc(C3CCC(N(C)C(=O)CN(C)C)CC3)c2C(C)C)cn2ncnc12 (single isomer, unassigned) [compound 297]	human TLR8 (Homo sapiens)	-0.57
CCN1CCC(c2ccc(-c3n[nH]c(-c4cc(C)c5ncnn5c4)c3C(C)C)cn2)CC1 [Example 360]	human TLR8 (Homo sapiens)	3.12
Cc1cc(-c2[nH]nc(C(=O)N[C@@H]3CCCN(C)C3)c2C(C)C)cn2ncnc12 [Example 160]	human TLR8 (Homo sapiens)	-1.22
Cc1cc(-c2[nH]nc(C(=O)N3CCCN(C)CC3)c2C(C)C)cn2ncnc12 [Example 23]	human TLR8 (Homo sapiens)	0.00
Cc1cc(-c2[nH]nc(-c3cnc(N4CCNCC4)nc3)c2C(C)C)cn2ncnc12 [Example 407]	human TLR8 (Homo sapiens)	2.45
Cc1cc(-c2[nH]nc(C(=O)N3CCC(N)CC3)c2C(C)C)cn2ncnc12 [Example 55]	human TLR8 (Homo sapiens)	0.06
CNC(=O)CN1CCC(c2cnc(-c3n[nH]c(-c4cc(OC)c5ncnn5c4)c3C(C)C)cn2)CC1 [Example 400]	human TLR8 (Homo sapiens)	1.20
COc1ncc(CN2CCC(NC(=O)c3n[nH]c(-c4cc(C)c5ncnn5c4)c3C(C)C)CC2)cn1 [Example 157]	human TLR8 (Homo sapiens)	1.08
Cc1cc(-c2[nH]nc(-c3ccc(N(C)C)cc3)c2C(C)C)cn2ncnc12 [Example 243]	human TLR8 (Homo sapiens)	0.32
Cc1cc(-c2[nH]nc(C(=O)N[C@H]3CC[C@H](NC4CCOCC4)CC3)c2C(C)C)cn2ncnc12 [Example 116]	human TLR8 (Homo sapiens)	0.28
Cc1cc(-c2[nH]nc(C(=O)N[C@H]3CC[C@@H](N(CCC(C)C)CCC(C)C)CC3)c2C(C)C)cn2ncnc12 [Example 91]	human TLR8 (Homo sapiens)	0.91
COc1cc(-c2[nH]nc(-c3ccc(C4CCN(C)CC4)cn3)c2C(C)C)cn2ncnc12 [Example 348]	human TLR8 (Homo sapiens)	1.35
Cc1cc(-c2[nH]nc(-c3cncc(N)c3)c2C(C)C)cn2ncnc12 [Example 225]	human TLR8 (Homo sapiens)	0.60
COc1cc(-c2[nH]nc(-c3ccc(C4CN(C)C4)cc3)c2C(C)C)cn2ncnc12 [Example 328]	human TLR8 (Homo sapiens)	1.11
COCC(C)N[C@H]1CC[C@@H](NC(=O)c2n[nH]c(-c3cc(C)c4ncnn4c3)c2C(C)C)CC1 (stereo partly shown) [Example 147]	human TLR8 (Homo sapiens)	0.75
COc1cc(-c2[nH]nc(-c3cnc(C4CCN(CC(=O)N(C)C)CC4)cn3)c2C(C)C)cn2ncnc12 [Example 401]	human TLR8 (Homo sapiens)	1.55
Cc1cc(-c2[nH]nc(C(=O)N[C@H]3CC[C@@H](NCC4CCOC4)CC3)c2C(C)C)cn2ncnc12 (stereo partly shown) [Example 87]	human TLR8 (Homo sapiens)	1.07
Cc1cc(-c2[nH]nc(C(=O)NC3CCNCC3)c2C(C)C)cn2ncnc12 [Example 43]	human TLR8 (Homo sapiens)	0.72
Cc1cc(-c2[nH]nc(C(=O)NC3CCCNC3)c2C(C)C)cn2ncnc12 (stereo not shown) [Example 67]	human TLR8 (Homo sapiens)	1.11
COc1cc(-c2[nH]nc(-c3cnc(C4CCN(CCF)CC4)cn3)c2C(C)C)cn2ncnc12 [Example 398]	human TLR8 (Homo sapiens)	2.56
Cc1cc(-c2[nH]nc(C(=O)NC3CCN(CC(=O)N(C)C)CC3)c2C(C)C)cn2ncnc12 [Example 176]	human TLR8 (Homo sapiens)	1.37
